# Tested on: Human peripheral blood mononuclear cells (PBMC)
# PROTOCOL_SUMMARY: Cytokine Induction in Human Cells (PBMC)
# Type: cell-based
# EXPERIMENTAL_PARAMETERS: 21-24 hours culture, lowest concentration giving cytokine at least 2× negative control, multiplex bead assay
Attribute: MEC to Induce Cytokine TNF-alpha

[
  {
    "COMPOUND": "CCCCOc1ccc(C[C@@H](COCC)n2cnc3c(N)nc4ccccc4c32)cc1 [Example 3]",
    "TGT": "Human peripheral blood mononuclear cells (PBMC)",
    "MEC to Induce Cytokine TNF-alpha": "≤0.01 µM"
  },
  {
    "COMPOUND": "CCCCC(CC)COc1ccc(C[C@@H](COCC)n2cnc3c(N)nc4ccccc4c32)cc1 (stereo partly drawn) [Example 5]",
    "TGT": "Human peripheral blood mononuclear cells (PBMC)",
    "MEC to Induce Cytokine TNF-alpha": "≤0.01 µM"
  },
  {
    "COMPOUND": "CCOC[C@H](Cc1ccc(OCc2ccccc2)cc1)n1cnc2c(N)nc3ccccc3c21 [Example 6]",
    "TGT": "Human peripheral blood mononuclear cells (PBMC)",
    "MEC to Induce Cytokine TNF-alpha": "≤0.01 µM"
  },
  {
    "COMPOUND": "CCCCCCCCCCCCOc1ccc(C[C@@H](COCC)n2cnc3c(N)nc4ccccc4c32)cc1 [Example 1]",
    "TGT": "Human peripheral blood mononuclear cells (PBMC)",
    "MEC to Induce Cytokine TNF-alpha": "3.3 µM"
  },
  {
    "COMPOUND": "CCCCCCOc1ccc(C[C@@H](COCC)n2cnc3c(N)nc4ccccc4c32)cc1 [Example 4]",
    "TGT": "Human peripheral blood mononuclear cells (PBMC)",
    "MEC to Induce Cytokine TNF-alpha": "≤0.01 µM"
  },
  {
    "COMPOUND": "CCCCCCCCOc1ccc(C[C@@H](COCC)n2cnc3c(N)nc4ccccc4c32)cc1 [Example 2]",
    "TGT": "Human peripheral blood mononuclear cells (PBMC)",
    "MEC to Induce Cytokine TNF-alpha": "0.37 µM"
  }
]

====

# Tested on: Human peripheral blood mononuclear cells (PBMC)
# PROTOCOL_SUMMARY: Cytokine Induction in Human Cells (PBMC)
# Assay type: cell-based
# EXPERIMENTAL_PARAMETERS: 21-24 hours culture, lowest concentration giving cytokine at least 2× negative control, multiplex bead assay
Parameter: MEC to Induce Cytokine IFN-gamma. Scope: all listed entries.

[
  {
    "LINE_NOTATION": "CCCCOc1ccc(C[C@@H](COCC)n2cnc3c(N)nc4ccccc4c32)cc1",
    "MEC to Induce Cytokine IFN-gamma": "≤0.01 µM"
  },
  {
    "LINE_NOTATION": "CCCCCCOc1ccc(C[C@@H](COCC)n2cnc3c(N)nc4ccccc4c32)cc1",
    "MEC to Induce Cytokine IFN-gamma": "≤0.01 µM"
  },
  {
    "LINE_NOTATION": "CCOC[C@H](Cc1ccc(OCc2ccccc2)cc1)n1cnc2c(N)nc3ccccc3c21",
    "MEC to Induce Cytokine IFN-gamma": "≤0.01 µM"
  }
]
